B1: TBX5 (parent)
chain: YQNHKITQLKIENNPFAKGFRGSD

variants of: B1; experiment: protein stability index of a GFP-peptide fusion (GPS, HEK-293T) (PSI 1-6); higher = more stable; settings: c terminus: a fixed tail appended;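 also: lentivirally expressed fusions sorted by FACS into six bins by GFP to DsRed ratio, PSI derived from sequencing read proportions per bin multiplied by bin number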
experimental_readout: protein stability index
Write the number on its own, no unit after it.

These solved cases illustrate the format of a correct answer.
Input: GET /values?readout=protein stability index&item= G19K
Output: 2.59

Input: GET /values?readout=protein stability index&item= T7I
Output: 2.5

Input: GET /values?readout=protein stability index&item= D24L
Output: 1.95

Input: GET /values?readout=protein stability index&item= D24I
Output: 2.08

---
Input: GET /values?readout=protein stability index&item= Q2I
Output: 2.19

Input: GET /values?readout=protein stability index&item= F20T
Output: 3.04
